Measured MIC, listed per entry for reference.
# Test system: Proteus vulgaris HX 19
# protocol-notes: Minimum Inhibitory Concentration, Proteus vulgaris HX 19
# Assay type: cell-based
# measurement-setup: HX19; Proteus vulgaris HX 19; read-out: Minimum Inhibitory Concentration
Express it in µg/mL; write the number only.

As a guide, the following entries are already answered.
[
  {
    "compound": "Cn1nnnc1SCC1=C(C(=O)O)N2C(=O)C(NC(=O)C(NC(=O)c3cnccc3O)c3ccc(O)c(O)c3)C2SC1 (stereo not drawn)",
    "observable": "MIC",
    "result": 0.39
  },
  {
    "compound": "CSc1cnc2c(O)c(C(=O)NC(C(=O)NC3C(=O)N4C(C(=O)O)=C(CSc5nnc(C)s5)CSC34)c3ccc(CO)cc3)cnc2n1 (stereo not drawn)",
    "observable": "MIC",
    "result": 0.39
  },
  {
    "compound": "Cn1nnnc1SCC1=C(C(=O)O)N2C(=O)C(NC(=O)C(NC(=O)c3cnc4ccc(O)nc4c3O)c3cccc(N)c3)C2SC1 (stereo not drawn)",
    "observable": "MIC",
    "result": 0.1
  },
  {
    "compound": "CC(=O)OCC1=C(C(=O)O)N2C(=O)[C@@H](NC(=O)[C@H](NC(=O)c3cnc4cccnc4c3O)c3ccc(NC(N)=O)cc3)[C@H]2SC1",
    "observable": "MIC",
    "result": 0.78
  },
  {
    "compound": "Cc1nnc(SCC2=C(C(=O)O)N3C(=O)C(NC(=O)C(NC(=O)c4cnc5ccc(N(C)C)nc5c4O)c4ccc(CO)cc4)C3SC2)s1 (stereo not drawn)",
    "observable": "MIC",
    "result": 0.1
  }
]

Would you kindly look at the next entry?
Task: Given the entry Cn1nnnc1SCC1=C(C(=O)O)N2C(=O)[C@@H](NC(=O)[C@H](NC(=O)c3cnc4cccnc4c3O)c3ccc(NC(N)=O)cc3)[C@H]2SC1 , report its measured MIC.
Result: 0.1
